# test-summary: Brain free fraction relative to free plasma in mice bearing intracranial tumors
# Type: in vivo
# condition-description: mouse, brain, sc
reported-property: fraction unbound
Answers are plain numbers.

// recorded fraction unbound for "C[C@H]1Oc2cc(cnc2N)-c2c(nn(C)c2C#N)CN(C)C(=O)c2ccc(F)cc21" : 0.3
